Here the recorded IC50 is given for each entry.
- ASSAYED_TARGET: plasmin (Homo sapiens)
- Construct: purchased Chromogenix (Milano, Italy)
- Sequence (P00747 581-810 limits assumed): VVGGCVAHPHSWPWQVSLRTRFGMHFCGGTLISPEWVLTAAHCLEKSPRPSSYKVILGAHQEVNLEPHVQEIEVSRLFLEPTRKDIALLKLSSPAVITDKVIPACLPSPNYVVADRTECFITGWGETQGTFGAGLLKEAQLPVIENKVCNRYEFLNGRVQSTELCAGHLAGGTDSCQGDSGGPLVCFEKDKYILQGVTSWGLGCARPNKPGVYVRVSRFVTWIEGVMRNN
- Sequence (P00747 97-580 partner limits assumed): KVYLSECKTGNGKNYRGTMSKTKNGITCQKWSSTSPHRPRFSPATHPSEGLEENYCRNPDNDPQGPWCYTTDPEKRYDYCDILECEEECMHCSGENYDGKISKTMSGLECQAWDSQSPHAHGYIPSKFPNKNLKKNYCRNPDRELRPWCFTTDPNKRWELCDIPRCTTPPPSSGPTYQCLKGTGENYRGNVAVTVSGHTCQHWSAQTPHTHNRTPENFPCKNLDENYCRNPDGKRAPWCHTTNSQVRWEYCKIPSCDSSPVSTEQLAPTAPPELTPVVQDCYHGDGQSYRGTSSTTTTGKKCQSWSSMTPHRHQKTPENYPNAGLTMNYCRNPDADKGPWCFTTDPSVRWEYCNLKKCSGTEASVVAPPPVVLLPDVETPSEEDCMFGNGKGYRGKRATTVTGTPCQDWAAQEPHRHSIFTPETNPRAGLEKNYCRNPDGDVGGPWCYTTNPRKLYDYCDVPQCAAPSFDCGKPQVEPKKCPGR
- ASSAY_INFO: Amidolytic activity of plasmin (chromogenic substrate H-D-Val-Leu-Lys-pNA)
- Assay type: biochemical
- EXPERIMENTAL_PARAMETERS: converted from IC50 of Table 1; read-out: -logIC50 Plasmin (converted)

SUBSTANCE: H-KTTRS-NH2 [Peptide 13, H-Lys-Thr-Thr-Arg-Ser-NH2]
UNITS_OF_MEASURE: µM
IC50: 708
--
SUBSTANCE: Ac-RTTRS-OH [Peptide 18, Ac-Arg-Thr-Thr-Arg-Ser-OH]
UNITS_OF_MEASURE: µM
IC50: 8910
--
SUBSTANCE: H-RTTRS-OH [Peptide 17, H-Arg-Thr-Thr-Arg-Ser-OH]
UNITS_OF_MEASURE: µM
IC50: 288
--
SUBSTANCE: H-RTTKS-NH2 [Peptide 29, H-Arg-Thr-Thr-Lys-Ser-NH2]
UNITS_OF_MEASURE: µM
IC50: 309
